- Assay Details: Quantitative High-Throughput drug screen in 47 multiple myeloma cell lines against the NCATS MIPE library collection: MMM1_PLB cell viability assay (AID 1918976); also: potency is read from the fitted curve at half-maximal effect; nearly all actives have a fitted effect of over 35% in size
- Condition: MMM1 myeloma cells viability, CellTiter-Glo, 48 h; series mostly up to 45.8 µM
Inconclusive results are not listed. The source made the active and inactive calls. Calls follow the shape of the dose curve; as a rule, active = well fitted cell-killing curve with a large enough effect; inconclusive = small, poorly fitted or top-dose-only effect, or effect the other way; inactive = no such curve, though single readings can be large or run the other way. Residues, ends and D or L forms follow the SMILES beside them. *: point of attachment. Cbz = O=C(OCc1ccccc1)*
Recorded Metric: Potency

molecule=Cc1ncc(-c2ccnc(Nc3ccc(S(C)(=O)=O)cc3)n2)n1C(C)C recorded_metric=Potency measured="4.69 µM (active)"
molecule=CN[C@@H]1C[C@H]2O[C@@](C)([C@H]1OC)n1c3ccccc3c3c4c(c5c6ccccc6n2c5c31)C(=O)N[C@H]4O recorded_metric=Potency measured="1.48 µM (active)"
molecule="CCCCCCCCCCCC(CC1OC(=O)C1CCCCCC)OC(=O)C(CC(C)C)NC=O (stereo not given)" recorded_metric=Potency measured="20.9 µM (active)"
molecule=CC(C=CC1=C(C)CCCC1(C)C)=CC=CC(C)=CC(=O)Nc1ccc(O)cc1 recorded_metric=Potency measured="21.5 µM (active)"
molecule=C[C@@]12C(=O)OC(=O)[C@@]1(C)C1CCC2O1 recorded_metric=Potency measured="1.87 µM (active)"

Hi there! I need Potency for each item below, if you can.
1. CN(C)c1ccc2cc(C(=O)N[C@@H](CCCN=C(N)CCl)C(=O)NCc3ccccc3)ccc2c1
2. c1ccc(CNc2nc(NCc3ccccc3)c3ccccc3n2)cc1
3. O=c1c(O)c(-c2ccc(O)c(O)c2)oc2cc(O)ccc12
4. CCOC(=O)N1CCN([N+]([O-])=NOc2ccc([N+](=O)[O-])cc2C#N)CC1

["18.7 µM (active)", "16.6 µM (active)", "26.4 µM (active)", "0.526 µM (active)"]

Hi there! I need Potency for each item below, if you can.
1. CC[C@]12C=CCN3CC[C@@]4(c5cc([C@@]6(C(=O)OC)C[C@H]7C[C@@H](C(C)(F)F)CN(Cc8c6[nH]c6ccccc86)C7)c(OC)cc5N(C)[C@H]4[C@@](O)(C(=O)OC)[C@H]1OC(C)=O)[C@@H]32
2. C=CC(=O)Nc1cc(NC(=O)c2ccc(C)c(NC(=O)c3ccno3)c2)cc(C(F)(F)F)c1
3. NC(=O)N1CCC(CC(=O)N2CCC([C@H]3c4ncc(Br)cc4CCc4cc(Cl)cc(Br)c43)CC2)CC1
4. Oc1ccc(-c2ccc(-c3cc(Nc4cccc(CNC5CC5)c4)n[nH]3)cc2)c(O)c1
5. CC(C)c1cnn2c(NCc3ccccc3)cc(NCCCCCCN)nc12
6. CC(C)C[C@H](NC(=O)[C@@H](NC(=O)c1cccc(-c2ccccc2)n1)[C@@H](C)O)B(O)O
7. NC(=O)c1ncn([C@@H]2O[C@H](CO)[C@@H](O)[C@@H]2O)c1O

["4.69 µM (active)", "20.9 µM (active)", "16.6 µM (active)", "2.35 µM (active)", "18.7 µM (active)", "3.72 µM (active)", "2.64 µM (active)"]

Hi there! I need Potency for each item below, if you can.
1. CC(=O)NC(CS)C(=O)O (stereo not given)
2. CCNC(=O)c1cc2c(-c3cc(OCCN4CCCC4)c(Cl)cc3Cl)nc(N)nc2s1
3. COc1cccc2c1C(=O)c1c(O)c3c(c(O)c1C2=O)C[C@@](O)(C(=O)CO)C[C@H]3O[C@H]1C[C@H](N)[C@H](O)[C@H](C)O1
4. Nc1ccc(C(=O)Nc2cccc(-c3nc(N4CCOCC4)c4oc5ncccc5c4n3)c2)cn1
5. CC(C)C[C@@H](C=O)NC(=O)[C@H](CC(C)C)NC(=O)[C@H](CC(C)C)NC(=O)OCc1ccccc1 (Cbz-Leu-Leu-Leu-aldehyde)

1. 18.7 µM (active)
2. 2.96 µM (active)
3. 0.148 µM (active)
4. 16.6 µM (active)
5. 2.35 µM (active)

Hi there! I need Potency for each item below, if you can.
1. N#Cc1ccc(COC[C@H]2O[C@@H](n3c(NCc4ccc(Cl)c(Cl)c4)nc4c(N)ncnc43)[C@@H](O)[C@@H]2O)cc1
2. CC(=O)[C@]1(O)Cc2c(O)c3c(c(O)c2[C@@H](O[C@H]2C[C@H](N)[C@@H](O)[C@H](C)O2)C1)C(=O)c1ccccc1C3=O
3. CCS(=O)(=O)Nc1ccc2[nH]c(O)c(C(=Nc3ccc(CN4CCCCC4)cc3)c3ccccc3)c2c1
4. CCC(C=C[C@@H]1OC(=O)C=C[C@H]1C)=C[C@H](C)CC=CC(C)=C[C@@H](C)C(=O)[C@@H](C)[C@H](O)[C@@H](C)CC(C)=CC(=O)O
5. CC(=O)O[C@]1(C(C)=O)CC[C@H]2[C@@H]3C=C(C)C4=CC(=O)CC[C@]4(C)[C@@H]3CC[C@@]21C
6. N#CNC(=NCCCCCCOc1ccc(Cl)cc1)Nc1ccncc1
7. NC[C@H]1O[C@H](O[C@H]2[C@@H](O)[C@@H](O[C@H]3O[C@H](CO)[C@@H](O)[C@H](N)[C@@H]3O)[C@H](N)C[C@@H]2N)[C@H](N)C[C@H]1O
8. OCCNC1CCCc2c1[nH]c1ccc(-c3ccccc3)cc21 (stereo not given)

["4.69 µM (active)", "0.148 µM (active)", "0.209 µM (active)", "0.0277 µM (active)", "18.7 µM (active)", "18.7 µM (active)", "2.09 µM (active)", "20.9 µM (active)"]

Hi there! I need Potency for each item below, if you can.
1. Oc1cc(-c2nc(-c3ccccc3)[nH]c2-c2ccncc2)ccc1Cl
2. CN1CCCN(C(=O)c2cccc(-c3ccc(C=C4C(=O)Nc5ccc(Cl)cc54)o3)c2)CC1

18.7 µM (active)
8.33 µM (active)

Hi there! I need Potency for each item below, if you can.
1. Cn1cc(-c2cnn3c(N)c(Br)c([C@H]4CCCNC4)nc23)cn1
2. CC(=O)SCC(Cc1ccccc1)C(=O)NCC(=O)OCc1ccccc1 (stereo not given)
3. NC(=O)c1ncn([C@@H]2O[C@H](CO)[C@@H](O)[C@@H]2O)c1N
4. Cn1cnc(=N)c2[nH]cnc21

0.662 µM (active)
7.43 µM (active)
2.64 µM (active)
0.148 µM (active)
